Values from patent US20260109695A1

# procedure.details: Solubility Assay
# Assay type: physicochemical
# measurement.context: 100 mM NaCl buffer, aqueous with cosolvent or surfactant or cyclodextrin, kinetic from dmso stock, 20 mM HEPES, pH 7.5, 18-24 hours at ambient temperature, read-out: Solubility
measurement.type: solubility

Look up solubility for this compound: C=C(NC(=O)c1csc(N2CCC(NC(=O)OC(C)(C)C)CC2)n1)C(=O)NC(=C)C(=O)OCC1CCOCC1
< 100 µM

Next: C=C(NC(=O)c1csc(N2CCC(NC(=O)OC(C)(C)C)CC2)n1)C(=O)NC(=C)c1nnc(C2CCOCC2)o1
< 100 µM

Next record, please: C=C(NC(=O)c1csc(N2CCC(NC(=O)OC(C)(C)C)CC2)n1)C(=O)NC(=C)C(=O)OC1CCOCC1
< 100 µM
